PROTOCOL NOTES: Biodistribution by gamma counting of harvested organs
Assay type: in vivo
TEST CONDITIONS: mouse, lymph node, iv, 150 uCi, total radioactivity
Bridges are numbered along the chain shown (N, C = ends). Roman numbers before positions name the chains, in order. Where no end group is shown, it is not given here. The star is where a group is joined. X1 = O=C(CON=Cc1ccc(F)cc1)*
ASSAY ENDPOINT: tissue uptake at 4 h

INSERT INTO assay_data (substance, result) VALUES
  ('I: VHPKQHRGGSYKKK(X1) / II: VHPKQHRGGSYK / III: VHPKQHRGGSY / IV: VHPKQHRGGSY (amide I:12-IV:C, I:13-II:C, II:12-III:C) [^18F-4V]', '3.7 %ID/g');

* * *

PROTOCOL NOTES: Biodistribution by gamma counting of harvested organs
Format: in vivo
TEST CONDITIONS: mouse, stomach, iv, 150 uCi, total radioactivity
Bridges are numbered along the chain shown (N, C = ends). Roman numbers before positions name the chains, in order. Where no end group is shown, it is not given here. The star is where a group is joined. X1 = O=C(CON=Cc1ccc(F)cc1)*
ASSAY ENDPOINT: tissue uptake at 4 h

INSERT INTO assay_data (substance, result) VALUES
  ('I: VHPKQHRGGSYKKK(X1) / II: VHPKQHRGGSYK / III: VHPKQHRGGSY / IV: VHPKQHRGGSY (amide I:12-IV:C, I:13-II:C, II:12-III:C) [^18F-4V]', '1.7 %ID/g');

* * *

PROTOCOL NOTES: Biodistribution by gamma counting of harvested organs
Format: in vivo
TEST CONDITIONS: mouse, spleen, iv, 150 uCi, total radioactivity
Bridges are numbered along the chain shown (N, C = ends). Roman numbers before positions name the chains, in order. Where no end group is shown, it is not given here. The star is where a group is joined. X1 = O=C(CON=Cc1ccc(F)cc1)*
ASSAY ENDPOINT: tissue uptake at 4 h (%ID/g)

INSERT INTO measurements (substance, recorded_number) VALUES
  ('I: VHPKQHRGGSYKKK(X1) / II: VHPKQHRGGSYK / III: VHPKQHRGGSY / IV: VHPKQHRGGSY (amide I:12-IV:C, I:13-II:C, II:12-III:C) [^18F-4V]', 2.1);

* * *

PROTOCOL NOTES: Biodistribution by gamma counting of harvested organs
Assay type: in vivo
TEST CONDITIONS: mouse, liver, iv, 150 uCi, total radioactivity
Bridges are numbered along the chain shown (N, C = ends). Roman numbers before positions name the chains, in order. Where no end group is shown, it is not given here. The star is where a group is joined. X1 = O=C(CON=Cc1ccc(F)cc1)*
ASSAY ENDPOINT: tissue uptake at 4 h (%ID/g)

INSERT INTO measurements (substance, result_units, recorded_number) VALUES
  ('I: VHPKQHRGGSYKKK(X1) / II: VHPKQHRGGSYK / III: VHPKQHRGGSY / IV: VHPKQHRGGSY (amide I:12-IV:C, I:13-II:C, II:12-III:C) [^18F-4V]', '%ID/g', 3.7);

* * *

PROTOCOL NOTES: Biodistribution by gamma counting of harvested organs
Type: in vivo
TEST CONDITIONS: mouse, esophagus, iv, 150 uCi, total radioactivity
Bridges are numbered along the chain shown (N, C = ends). Roman numbers before positions name the chains, in order. Where no end group is shown, it is not given here. The star is where a group is joined. X1 = O=C(CON=Cc1ccc(F)cc1)*
ASSAY ENDPOINT: tissue uptake at 4 h

INSERT INTO assay_data (substance, result) VALUES
  ('I: VHPKQHRGGSYKKK(X1) / II: VHPKQHRGGSYK / III: VHPKQHRGGSY / IV: VHPKQHRGGSY (amide I:12-IV:C, I:13-II:C, II:12-III:C) [^18F-4V]', '1.5 %ID/g');

* * *

PROTOCOL NOTES: Biodistribution by gamma counting of harvested organs
Type: in vivo
TEST CONDITIONS: mouse, bone, iv, 150 uCi, total radioactivity
Bridges are numbered along the chain shown (N, C = ends). Roman numbers before positions name the chains, in order. Where no end group is shown, it is not given here. The star is where a group is joined. X1 = O=C(CON=Cc1ccc(F)cc1)*
ASSAY ENDPOINT: tissue uptake at 4 h (%ID/g)

INSERT INTO assay_data (substance, recorded_number) VALUES
  ('I: VHPKQHRGGSYKKK(X1) / II: VHPKQHRGGSYK / III: VHPKQHRGGSY / IV: VHPKQHRGGSY (amide I:12-IV:C, I:13-II:C, II:12-III:C) [^18F-4V]', 1.3);
